Target: HiBiT-tagged BCL-xL (Homo sapiens, UniProt Q07817)
Construct: expressed in transfected cells; host or cells: NCI-H1650 (ATCC No. CRL-5883), engineered HiBiT cell line
Sequence (Q07817 whole entry): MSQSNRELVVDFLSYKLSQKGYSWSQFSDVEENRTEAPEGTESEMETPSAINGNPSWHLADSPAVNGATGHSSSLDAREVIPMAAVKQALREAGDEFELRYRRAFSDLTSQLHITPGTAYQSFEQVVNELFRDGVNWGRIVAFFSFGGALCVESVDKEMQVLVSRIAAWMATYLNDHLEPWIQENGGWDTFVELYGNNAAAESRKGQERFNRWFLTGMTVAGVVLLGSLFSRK
Test: NCI-H1650 BCL-xL protein levels, Nano-Glo HiBiT Lytic Detection
Assay type: cell-based
Settings: NCI-H1650 expressing HiBiT-tagged BCL-xL, overnight incubation, read-out: Bcl-xl HIBIT NCIH1650 DC50
measurement-kind: DC50 (nM)
Record the value in nM, omitting the unit from your answer.

Asked: Record Cc1ncsc1-c1ccc([C@H](C)NC(=O)[C@@H]2C[C@@H](O)CN2C(=O)[C@@H](NC(=O)CCCCCCN(C)CCOC23CC4(C)CC(C)(CC(Cn5ncc(-c6ccc(N7CCCc8c7nnc(Nc7nc9ccccc9s7)c8C)nc6C(=O)O)c5C)(C4)C2)C3)C(C)(C)C)cc1 : what is its DC50 with HiBiT-tagged BCL-xL (Homo sapiens, UniProt Q07817)?
Given back: 3

Source listed as patent US20240376094A2.
